Ref: ChEMBL document CHEMBL1157539

- System: Plasmodium falciparum
- ASSAY OVERVIEW: GSK_TCMDC: Inhibition of Plasmodium falciparum Dd2 in whole red blood cells, using parasite LDH activity as an index of growth. Test compounds present at 2uM
- Type: functional
Attribute: Inhibition

| COMPOUND | Inhibition (%) |
| --- | --- |
| CCC(CC)n1c(C)cc2c3c(N)nc(N)nc3ccc21 | 95 |
| CCOC(=O)c1ccc(OCc2ccc(-c3ccccc3)cc2)cc1 | 0 |
| O=C(Nc1cccc(CN2CCCN(Cc3ccc(F)cc3)CC2)c1)c1cc2ccccc2s1.O=C(O)C(F)(F)F | 36 |
| Cc1cc(OCCCNC(=N)c2ccc3ccccc3c2)c(C(C)C)cc1Cl.Cc1ccc(S(=O)(=O)O)cc1 | 10 |
| CCN(CC1CCN(CC2(O)CCOCC2)CC1)c1cc(C)nc(Nc2ccc(Cl)cc2)n1 | 99 |
| COc1ccc(-c2cc(C(=O)N[C@@H](CC3CCCCC3)C(=O)NCCN3CCCC3)ccc2O)cc1 | 12 |
| CN(C(=O)Nc1ccc(C(F)(F)F)cc1)C1CCN(CCCCCNC(=O)/C=C/c2ccc(Cl)c(Cl)c2)CC1 | 38 |
| Cc1cccc(-c2cc3cc(Nc4ccnc5cc(-c6nccs6)ccc45)ccc3[nH]2)c1.Cl | 100 |
| O=C(NC(Nc1ccc([N+](=O)[O-])cc1)C(Cl)(Cl)Cl)c1cccc(Cl)c1 (stereo not drawn) | 17 |
| O=C(O)C(F)(F)F.c1ccc(CNCc2ccc(-c3cccc(-c4nc5ccccc5[nH]4)c3)cc2)cc1 | 78 |
| Cl.NC1CCN(CCc2ccc(NS(=O)(=O)c3cccc4ccccc34)cc2)CC1 | 4 |
| CCS(=O)(=O)c1ccc(OC)c(Nc2nccc(-c3c(-c4cccc(NC(=O)c5c(F)cccc5F)c4)nn4ncccc34)n2)c1 | 88 |
| CC(C)[C@H](NC(=O)c1ccc(O)c(-c2ccc(Cl)c(Cl)c2)c1)C(=O)NCCN(C)C | 1 |
| Nc1ccc2[nH]cc(C3CCN(CCC4CCN(C(=O)/C=C/c5ccc(Cl)c(Cl)c5)CC4)CC3)c2n1 | 78 |
| CC(C)Nc1cc(C(=O)N[C@@H](Cc2ccccc2)[C@H](O)CNCc2cccc(C(F)(F)F)c2)c(F)c(N2CCCCS2(=O)=O)c1.O=CO | 78 |
| Nc1nc(N)c2c(Oc3cc(Cl)c(Cl)c(Cl)c3)cccc2n1 | 92 |
| Fc1ccc2[nH]c(-c3ccc(-c4ccc(CNCC5CCCO5)cc4)cc3)nc2c1.O=C(O)C(F)(F)F (stereo not drawn) | 100 |
| CN1CCCN(Cc2ccc(-c3cccc(NC(=O)c4cccc(C#N)c4)c3)cc2)CC1.O=C(O)C(F)(F)F | 64 |

###

- System: Plasmodium falciparum
- ASSAY OVERVIEW: GSK_TCMDC: Inhibition of Plasmodium falciparum Dd2 in whole red blood cells, using parasite LDH activity as an index of growth. Test compounds present at 2uM
- Assay type: functional
Attribute: Inhibition

| COMPOUND | TARGET SYSTEM | Inhibition [%] |
| --- | --- | --- |
| Br.CC1(C)NC(N)=NC(=N)N1OCCCCCCOc1ccc(Cl)c2ccccc12 | Plasmodium falciparum | 94 |
| O=C(NC1CCCCC1)N(Cc1cccc(-c2cccc(CNC3CCCC3)c2)c1)C1CCN(Cc2ccccc2)CC1.O=C(O)C(F)(F)F | Plasmodium falciparum | 90 |
| FC(F)(F)c1ccc(-c2ccc(CNC3CCN(CCN4CCOCC4)CC3)cc2)cc1 | Plasmodium falciparum | 74 |
| O=C1C(=Cc2cc(Cc3ccccc3)ccc2O)SC(=S)N1Cc1ccccc1 | Plasmodium falciparum | 53 |
| C/C(=C\C(=O)NC1CC1)c1ccccc1OCc1ccccc1 | Plasmodium falciparum | 1 |
| COc1cc(-n2cnc3cc(-c4ccc(Cl)cc4)sc3c2=O)ccc1OCCN1CCC(c2cccc(NC(C)=O)c2)CC1.O=C(O)/C=C\C(=O)O | Plasmodium falciparum | 80 |
| Nc1oc2c(CN3CCCCCC3)c(O)ccc2c(=O)c1-c1nc2ccccc2s1 | Plasmodium falciparum | 99 |
| CCc1cn2c3c(cc(C(=O)N[C@@H](Cc4ccccc4)[C@H](O)CNC4CCOCC4)cc13)N(CC(F)(F)F)S(=O)(=O)CC2.O=CO | Plasmodium falciparum | 98 |
| CCc1cc(N2CCN(c3ccccc3F)CC2)nc(SCc2ccc(C(=O)NC3CC3)o2)n1 | Plasmodium falciparum | 94 |
| Cc1c(Cl)cccc1N=C(S)NN=Cc1ccccn1 | Plasmodium falciparum | 85 |
| CN(C)CCN(C)Cc1ccc(-c2cccc(NC(=O)c3ccc(Cl)cc3)c2)cc1.O=C(O)C(F)(F)F | Plasmodium falciparum | 71 |
| COC(=O)c1cc(OC2CCOC2=O)cc2c1OC(C)(C)O2 (configuration not stated) | Plasmodium falciparum | 0 |
| CN1CCN(c2ccc(Nc3c(C(N)=O)cnc4cc(-c5ccoc5)ccc34)cc2C(F)(F)F)CC1.Cl | Plasmodium falciparum | 97 |
| Clc1ccc(-c2csc3ncnc(Cl)c23)cc1 | Plasmodium falciparum | 95 |
| Cl.N#Cc1ccc2c(c1)CN(CCCCNC(=O)c1ccc(-c3ccccc3)cc1)CC2 | Plasmodium falciparum | 10 |
| CCc1c(C(=O)NC2CCC(N3CCC(c4ccccc4OC)CC3)CC2)[nH]c2ccc(OC)cc12 (configuration not stated) | Plasmodium falciparum | 99 |
| Cc1nc2nc(N)nc(N)c2c(C)c1Cc1ccc(C(N)=O)cc1.Cl | Plasmodium falciparum | 0 |
| N#CC(c1cccc(Cl)c1)c1ccc2c(C(F)(F)F)cc(C(F)(F)F)nc2n1 (configuration not stated) | Plasmodium falciparum | 97 |
| CCC1(CC)CN(c2ccccc2)c2ccc(O)cc2S(=O)(=O)C1CC(C)C (configuration not stated) | Plasmodium falciparum | 89 |
| CCCCCCCC1CCN(C[C@H](O)c2ccnc3ccc(OC)cc23)CC1.O=C(O)C(=O)O | Plasmodium falciparum | 81 |
| Cc1cc(OCC2CCN(c3ccc(C(=O)NC4CC4)cn3)CC2)ccc1F | Plasmodium falciparum | 95 |
| N#Cc1cncc(-c2nc3c(N4CCC(Cc5ccccc5)CC4)cccc3n2C2CCNC2)c1.O=C(O)C(F)(F)F (configuration not stated) | Plasmodium falciparum | 7 |
| CNC(=O)/C=C/c1cc(NC(=O)Nc2ccnc3c(Br)cccc23)ccc1OC | Plasmodium falciparum | 68 |
| Cc1nnsc1C(=O)Nc1ccc(-c2ccc(-c3nc4cccc(C)c4[nH]3)s2)cc1 | Plasmodium falciparum | 61 |
| COc1ccc(C2CC(=O)C3=C(C2)NC(C)=C(C(=O)OC(C)C)C3c2ccccc2F)cc1OC (configuration not stated) | Plasmodium falciparum | 99 |
| COc1ccc(-c2ccc(NC(=O)c3cccc(Cl)c3)c(F)c2)cc1CNC(C)C.O=C(O)C(F)(F)F | Plasmodium falciparum | 14 |
| O=C(/C=C/c1ccc(Cl)c(Cl)c1)NCCCCCN1CCC(c2c[nH]c3cc(O)ccc23)CC1 | Plasmodium falciparum | 2 |
| O=C1Nc2cccc3c2C1(CCCN1CCC(c2c[nH]c4cc(C(F)(F)F)ccc24)CC1)CCC3 (configuration not stated) | Plasmodium falciparum | 37 |
| CS(=O)(=O)O.FC(F)(F)COc1ccc(CCNCCCCNCCc2ccc(OCC(F)(F)F)c3ccccc23)c2ccccc12 | Plasmodium falciparum | 70 |
| Cn1c(NCc2cc(F)cc3c2OCOC3)nc2cc(Nc3ccnc(Nc4cccc(CS(C)(=O)=O)c4)n3)ccc21 | Plasmodium falciparum | 100 |
| COc1ccc(-c2nc3c(N)nc(N)nc3nc2C(C)C)cc1 | Plasmodium falciparum | 0 |
| CN(C)CCn1c(=N)n(CC(O)c2ccc(Cl)c(Cl)c2)c2ccccc21.Cl (configuration not stated) | Plasmodium falciparum | 6 |
| CCn1c(-c2nonc2N)nc2c(-c3cccc(NC(=O)Nc4ccc(C#N)cc4)c3)ncc(OCCCN)c21.O=C(O)C(F)(F)F | Plasmodium falciparum | 80 |
| CCCCN1CCN(c2cc(NS(=O)(=O)c3ccc(C(=O)Nc4ccc(C(F)(F)F)cc4)cc3)ccc2OC)CC1.O=C(O)C(F)(F)F | Plasmodium falciparum | 20 |
| CS(=O)(=O)c1ccc(Nc2ncc(-c3ccc(S(C)(=O)=O)cc3)c(OCC(F)(F)F)n2)cc1 | Plasmodium falciparum | 98 |
| Cc1ccc(CON2C(N)=NC(N)=NC23CCCCC3)c2ccccc12.Cl | Plasmodium falciparum | 56 |
| CC(C)(C)c1cc(C(=O)Nc2ccc(C(=N)N)cc2)c(O)c(C(C)(C)C)c1.O=C(O)C(F)(F)F | Plasmodium falciparum | 88 |

###

- System: Plasmodium falciparum
- ASSAY OVERVIEW: GSK_TCMDC: Inhibition of Plasmodium falciparum Dd2 in whole red blood cells, using parasite LDH activity as an index of growth. Test compounds present at 2uM
- Type: functional

| COMPOUND | Inhibition, % |
| --- | --- |
| N#Cc1cccc(Nc2cc(C(F)(F)F)nc(Nc3ccccc3)n2)c1.O=C(O)C(F)(F)F | 17 |
| CC(Oc1ccc(Cl)cc1)C(=O)Nc1cc(C(F)(F)F)ccc1-n1cncn1 (centres undefined) | 98 |
| OC(CN1CCN(Cc2ccccc2)CC1)Cn1c(-c2ccccc2)c(-c2ccccc2)c2ccccc21 (centres undefined) | 97 |
| COc1cccc2c(NCc3ccccc3)nc(NCCCN3CCCCC3C)nc12 (centres undefined) | 2 |
| CCN1CCN(c2ccc(Nc3ccnc4ccc(Br)cc34)cc2)CC1 | 86 |
| N#Cc1cccc(C(=O)NC2CCN(CCCCCNC(=O)/C=C/c3ccc(Cl)c(Cl)c3)CC2)c1 | 0 |
| CCN(CC)c1cc(C)c2cc(NC(=O)c3cc(=O)c4ccccc4o3)ccc2n1 | 67 |
| COc1cc(C(=O)Nc2cccc(-c3cn4cccc(C)c4n3)c2)cc(OC)c1OC | 77 |
| Cc1cc(N[C@@H](Cc2ccccc2)C(=O)NCCc2ccccc2)nc(NCCOc2ccccc2)n1.O=C(O)C(F)(F)F | 14 |
